test description: Pharmacokinetic (PK) experiments after intragastric administration in rats
Assay type: in vivo, SD rats
assay conditions: male, SD, rat, plasma, po, intragastric administration 20 mg/kg
measurement label: log10(AUC(0-inf)) (log10 of the value in ng·h/mL)
Could you please treat all values as log10 of AUC(0-inf) in ng·h/mL?

Recorded results for 3 molecules are shown here.
molecule	readout number
CCc1c(C(=O)/C=C/c2cc(C)c(OC(C)(C)C(=O)O)c(C)c2)oc2cc(SC)ccc12 [Compound 63]	3.24
CSc1ccc(C(=O)/C=C/c2cc(C)c(OC(C)(C)C(=O)O)c(C)c2)c2occc12 [Compound 5]	3.51
CSc1ccc2c(C)c(C(=O)/C=C/c3cc(Cl)c(OC(C)(C)C(=O)O)c(Cl)c3)oc2c1 [Compound 103]	4.71

Value sought for every listed molecule: log10(AUC(0-inf)).
1. COc1ccc2cc(C(=O)/C=C/c3cc(C)c(OC(C)(C)C(=O)O)c(C)c3)oc2c1 [Compound 43]
2. CSc1ccc(C(=O)/C=C/c2cc(C)c(OC(C)(C)C(=O)O)c(C)c2)cc1 [Elafibranor, reference compound]

1: 3.20; 2: 3.13
